biological target: mouse TRPM3a2 (mTRPM3) ion channel (Mus musculus, UniProt J9SQF3); construct: expressed in transfected cells; host or cells: flip-in HEK293; experiment: TRPM3 ion channel driven Ca2+ uptake, Fluo-4 AM assay (PS-stimulated, overexpressing flip-in HEK293 cells); type: cell-based; conditions: PS (50 μM) stimulated, cpd 001-199
Sequence (J9SQF3 1-1709 isoform J9SQF3-12): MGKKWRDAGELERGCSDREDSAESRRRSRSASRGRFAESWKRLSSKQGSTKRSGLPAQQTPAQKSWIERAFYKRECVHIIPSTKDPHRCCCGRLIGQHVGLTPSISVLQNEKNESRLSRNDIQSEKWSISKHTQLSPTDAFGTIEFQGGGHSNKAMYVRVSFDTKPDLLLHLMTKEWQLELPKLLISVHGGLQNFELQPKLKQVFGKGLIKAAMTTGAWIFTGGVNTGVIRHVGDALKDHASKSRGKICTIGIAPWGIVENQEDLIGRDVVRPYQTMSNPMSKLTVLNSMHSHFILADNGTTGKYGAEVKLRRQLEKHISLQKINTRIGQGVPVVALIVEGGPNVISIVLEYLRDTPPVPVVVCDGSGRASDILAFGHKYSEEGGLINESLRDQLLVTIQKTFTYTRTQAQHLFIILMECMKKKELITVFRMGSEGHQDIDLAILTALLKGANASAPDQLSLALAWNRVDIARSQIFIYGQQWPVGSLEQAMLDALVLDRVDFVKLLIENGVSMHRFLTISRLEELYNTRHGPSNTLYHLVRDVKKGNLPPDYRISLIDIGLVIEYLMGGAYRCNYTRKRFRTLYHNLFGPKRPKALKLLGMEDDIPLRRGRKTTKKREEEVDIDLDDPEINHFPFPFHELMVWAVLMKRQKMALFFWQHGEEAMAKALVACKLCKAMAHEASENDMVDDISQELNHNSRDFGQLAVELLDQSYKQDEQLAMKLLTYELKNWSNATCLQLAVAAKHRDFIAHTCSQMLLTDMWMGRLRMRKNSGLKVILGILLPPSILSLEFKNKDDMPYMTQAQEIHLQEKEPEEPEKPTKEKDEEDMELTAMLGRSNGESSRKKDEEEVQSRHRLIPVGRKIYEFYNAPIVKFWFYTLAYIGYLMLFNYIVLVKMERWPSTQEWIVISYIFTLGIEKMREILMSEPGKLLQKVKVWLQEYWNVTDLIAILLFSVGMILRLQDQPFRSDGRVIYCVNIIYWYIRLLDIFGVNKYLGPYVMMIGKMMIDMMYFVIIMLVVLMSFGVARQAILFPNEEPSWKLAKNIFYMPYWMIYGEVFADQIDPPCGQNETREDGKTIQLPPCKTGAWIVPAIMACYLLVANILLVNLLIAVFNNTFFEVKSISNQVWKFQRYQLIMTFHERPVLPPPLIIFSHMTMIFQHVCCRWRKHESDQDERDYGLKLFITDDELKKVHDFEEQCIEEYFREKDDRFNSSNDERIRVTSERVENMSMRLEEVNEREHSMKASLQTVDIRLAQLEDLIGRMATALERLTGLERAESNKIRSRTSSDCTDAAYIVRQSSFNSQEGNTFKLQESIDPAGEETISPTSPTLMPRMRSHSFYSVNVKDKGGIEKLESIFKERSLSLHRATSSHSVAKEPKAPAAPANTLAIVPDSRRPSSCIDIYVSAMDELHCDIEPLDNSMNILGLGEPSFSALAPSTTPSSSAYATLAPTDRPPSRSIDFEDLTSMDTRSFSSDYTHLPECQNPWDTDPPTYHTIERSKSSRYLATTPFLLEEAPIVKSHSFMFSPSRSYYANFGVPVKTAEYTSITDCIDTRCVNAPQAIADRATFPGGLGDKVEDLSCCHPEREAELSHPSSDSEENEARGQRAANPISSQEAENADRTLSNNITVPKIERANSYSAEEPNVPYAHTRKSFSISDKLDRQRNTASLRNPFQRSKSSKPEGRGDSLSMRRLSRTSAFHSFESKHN
pIC50: −log10 of the molar value.
Measured pIC50 by item

Answered cases to consult:
| Compound | pIC50 |
| --- | --- |
| Cc1cccnc1COc1ccc2oc(C)c(C(=O)NC3CCN(C(=O)OC(C)(C)C)CC3(F)F)c2c1 (centres unmarked) [cpd 088] | 4.70 to 6.00 |
| Cc1oc2ccc(OCc3cncnc3)cc2c1C(=O)NC1CCNC1=O (centres unmarked) [cpd 032] | 4.70 to 6.00 |
| Cc1oc2ccc(OCc3cccnc3C(F)(F)F)cc2c1C(=O)NC1CCNCC1(F)F (centres unmarked) [cpd 074] | ≥ 6.00 |
| Cc1ncsc1COc1ccc2oc(C)c(C(=O)NC3CN(CC(F)(F)F)CC3(F)F)c2c1 (single isomer, unassigned) [155 - En 2] | ≥ 6.00 |
| Cc1oc2ccc(OCc3cccnc3C(F)(F)F)cc2c1C(=O)NC1CN(CCO)CC1(F)F (single isomer, unassigned) [134 - En 1] | 4.70 to 6.00 |

Data request, read-out pIC50, for Cc1ncsc1COc1ccc2oc(C)c(C(=O)NC3CCN(C)CC3(F)F)c2c1 (single isomer, unassigned) [110 - En 1]
≥ 6.00

Data request, read-out pIC50, for Cc1oc2ccc(OCc3ccccn3)cc2c1C(=O)NC1CCN(C(=O)OC(C)(C)C)CC1(F)F (centres unmarked) [cpd 097]
4.70 to 6.00

Data request, read-out pIC50, for Cc1oc2ccc(OCc3cnn(C)c3)cc2c1C(=O)O [cpd 010]
4.70 to 6.00

Value source: patent US20240336602A1
